Test system: P12-Ichikawa
Assay: cell viability relative to DMSO control; higher = less cytotoxic
Conditions: RPMI 5 mM glucose + 10% FBS; 48 h; 0.00234 µM
Quick list: cell viability per entry.
State the value with its unit after it.

// worked examples, cell viability included
>  <Compound>
OC[C@H]1O[C@H]([C@@H](F)[C@@H]1O)N2\C=C/C(=O)NC2=O

>  <cell viability>
108%

$$$$
>  <Compound>
CC(=O)Nc1ccc([C@H](C)C(=O)Nc2ncc(C(C)C)s2)cc1

>  <cell viability>
96.9%

$$$$
>  <Compound>
CC(=O)C\1=C(/C)C2=CN=C(NC3=CC=C(C=N3)N4CCNCC4)N=C2N(C5CCCC5)C1=O

>  <cell viability>
116%

$$$$
>  <Compound>
[NH2][Pt]([NH2])([Cl])[Cl]

>  <cell viability>
92.8%

$$$$
>  <Compound>
OC(=O)\C1=C\N(C2=CC=C(F)C=C2)C3=C(C=C(F)C(=C3)N4CCNCC4)C1=O

>  <cell viability>
118%

$$$$

Consider the compound shown here: O=C(/C=C/c1c(C(=O)[O-])[nH]c2cc(Cl)cc(Cl)c12)Nc1ccccc1 What is its recorded cell viability?
105%
